Attribution: PubChem BioAssay

# assay_target: Fibroblast growth factor 2 (Homo sapiens)
# assay_comment: basic fibroblast growth factor binding to printed compounds – biochemical, small-molecule microarray, 635/667 nm fluorescence, primary screen (AID 1133)
# reported_conditions: FGF2, fluorescence 635/667, higher = more signal
Please provide measured composite z-score for the entries that follow.
Answer with a number only.

Give the reported composite z-score for this compound. C=C(C)[C@@H]1CC=C(C(O)C2C=CC3C(=O)NC(=O)C3N2Nc2ccc(Cl)cc2Cl)CC1 (stereo partly drawn)
-0.853

Give the reported composite z-score for this compound. "COC(=O)C(CC#Cc1ccc2c(c1)[C@]1(C(=O)N2)[C@H](c2ccccc2OCCO)N2[C@H](c3ccccc3)[C@H](c3ccccc3)OC(=O)[C@H]2[C@@H]1C(N)=O)C(=O)OC"
0.168

Give the reported composite z-score for this compound. "COC(=O)[C@@]1(Cc2ccccc2)[C@H]2c3cc(C(=O)N(C)C)n(Cc4ccc(OC)c(OC)c4)c3C[C@H]2CN1C(=O)c1ccccc1"
-0.588

Give the reported composite z-score for this compound. "C=C(CCCC)C(=O)CC[C@@H](OC(C)=O)c1ccc(CO)o1"
1.8

Give the reported composite z-score for this compound. "O[C@@H](Cc1ccccc1)[C@@H](/C=C/C1CC1)NCc1cccc(Cl)c1"
-1.99

Give the reported composite z-score for this compound. "COc1ccc(CCNC(=O)[C@@]2(C)c3ccccc3C(=O)N(c3ccc(C)cn3)[C@H]2c2ccc(CO)cc2)cc1"
-1.09

Give the reported composite z-score for this compound. CN1C(=O)C2C=CC(C(O)c3ccccc3)N(N3CCCCC3)C2C1=O (stereo not drawn)
-0.234

Give the reported composite z-score for this compound. "Cc1ccc(S(=O)(=O)N2C[C@@H](C(=O)O)[C@H](Sc3ccccc3)C[C@H]2c2ccccc2)cc1"
-0.194

Give the reported composite z-score for this compound. OCC1C=C(/C=C/c2ccccc2)CN1Cc1ccccc1Br (stereo not drawn)
1.39

Give the reported composite z-score for this compound. "CCCC=C(CCC)[C@@H](NS(=O)(=O)c1ccc(Cl)cc1)c1ccc(C(=O)OC)cc1"
-0.174

Give the reported composite z-score for this compound. COc1ccc(C(O)C2C=CC3C(=O)N(C)C(=O)C3N2NC(=O)OC(C)(C)C)c2ccccc12 (stereo not drawn)
-0.161

Give the reported composite z-score for this compound. "COc1ccc([Si](C)(C)[C@H]2[C@H](CCO)O[C@@]3(C(=O)N(Cc4ccccc4)c4ccc(N5CCCCC5=O)cc43)[C@@H]2C)cc1"
1.28

Give the reported composite z-score for this compound. "C=CC[C@]1(C(N)=O)COC(c2ccc(OCCCO)cc2)=N1"
1.31

Give the reported composite z-score for this compound. CCCCCCCCCCC(O)C1C=CC2C(=O)NC(=O)C2N1Nc1ccc(Cl)cc1Cl (stereo not drawn)
-0.942

Give the reported composite z-score for this compound. "COCC(=C=CC[C@H](O)c1cccc(OCCO)c1)C[C@H](O)c1cc(Cl)cc(Cl)c1O"
1.87

Give the reported composite z-score for this compound. COc1cc2c(cc1O)C(c1cccs1)N(Cc1ccc([N+](=O)[O-])o1)CC2 (stereo not drawn)
0.478

Give the reported composite z-score for this compound. "COCC(=C=CC[C@H](O)c1ccccc1OCCO)CCO"
1.11

Give the reported composite z-score for this compound. "O=C(O)[C@H]1C[C@H]2C(=O)N3CCC[C@H]3C(=O)N2[C@H]1c1ccc(O)cc1"
-0.879

###

# assay_comment: plasmodial surface anion channel blockers, osmotic lysis – cell-based, P. falciparum Indochina, OD700, 1 h, primary screen (AID 1154)
# reported_conditions: P. falciparum Indochina infected RBC osmotic lysis, higher = more signal, called active from +8 up or from −8 down
readout_name: z-score
Answer with a number only.

Give the reported z-score for this molecule. O=C1C2C=CC(C(O)C=Cc3ccc([N+](=O)[O-])cc3)N(n3cnnc3)C2C(=O)N1Cc1ccccc1 (centres undefined)
4.59

Give the reported z-score for this molecule. "COCCOC(=O)N1C(=O)[C@@]2(c3cc(C#CCCO)ccc31)[C@H](c1ccc(O)cc1)N1[C@H](c3ccccc3)[C@H](c3ccccc3)OC(=O)[C@H]1[C@@H]2C(=O)N1CCN(c2ncccn2)CC1"
1.65

Give the reported z-score for this molecule. "CCCC=C(CCC)[C@@H](NS(=O)(=O)c1ccc(Cl)cc1)c1ccc(C(=O)OC)cc1"
-0.556

Give the reported z-score for this molecule. O=C1OCCC=C[C@H]2OC34C=CCN(Cn5nnc6ccccc65)C(=O)[C@H]3N(CCO)C(=O)[C@@H]4C12 (some centres undefined)
1.03

###

# assay_comment: budding yeast growth changes without added modifier – OD600, strain BY4716, 24 h, basal condition, primary screen (AID 1173)
# reported_conditions: S. cerevisiae BY4716 growth, OD600, 24 h, called active from +8 up or from −8 down
Active and inactive are the calls of the source.
Field 'call' accepts label 1 = active, label 0 = inactive

// outcome(item) with item = "COCCCNC(=O)[C@@]1(Sc2ccc(C)cc2)CC(=O)N(Cc2ccccc2Cl)[C@@H]1c1ccc(CO)cc1"
label 0

// outcome(item) with item = O=C1C2C=CC(C(O)c3cc(C(F)(F)F)cc(C(F)(F)F)c3)N(Nc3ccccc3)C2C(=O)N1c1ccccc1 (stereo not drawn)
label 0

// outcome(item) with item = "COc1ccc(C(=O)Nc2ccc(CN3C(=O)[C@]4(O[C@H](CC(=O)N5CCC[C@H]5CO)[C@@H]([Si](C)(C)c5ccc(OC)cc5)[C@@H]4C)c4ccccc43)cc2)cc1"
label 0

// outcome(item) with item = "COCC(=C=CC[C@H](O)c1cccc(OCCO)c1)C[C@H](O)c1cc(Cl)cc(Cl)c1O"
label 0

// outcome(item) with item = "CCOC(=O)[C@H]1C/C=C/C[C@H](C(=O)OCC)C(=O)O[C@H]2[C@@H](OC)O[C@H](CO)[C@@H](OC(=O)c3ccc(Br)cc3)[C@@H]2OC1=O"
label 0

// outcome(item) with item = "C=C(CCCC)C(=O)CC[C@@H](OC(C)=O)c1ccc(CO)o1"
label 1

// outcome(item) with item = "CCCCCCc1nc(-c2ccc(-c3ccc(Cl)c(Cl)c3)o2)c(C)c2c1[Si](C(C)C)(C(C)C)OC2"
label 0

// outcome(item) with item = "O=C(O)[C@H](Cc1ccccc1)n1cc(-c2ccccc2)nn1"
label 0

###

# assay_target: Torsin-1A (Homo sapiens)
# assay_comment: TOR1A wild-type binding on microarray – cell lysate, small-molecule microarray, lysate, 635/667 nm, primary screen (AID 1149)
# reported_conditions: COS7 hTOR1A-WT lysate, 635 nm fluorescence, higher = more signal
Please provide measured composite z-score for the entries that follow.
Answer with a number only.

Provide the reported composite z-score (system: Torsin-1A (Homo sapiens)) for CCCCN1CC=CC23O[C@@H]4/C=C\CCCOC(=O)C4[C@H]2C(=O)N(CCCCCO)[C@@H]3C1=O (some centres not stated)
-0.0808

Provide the reported composite z-score (system: Torsin-1A (Homo sapiens)) for "O=C(O)[C@@]1(CCS(=O)(=O)c2ccccc2)N=C(c2ccc(OCCCO)cc2)O[C@H]1c1ccccc1"
1.43

Provide the reported composite z-score (system: Torsin-1A (Homo sapiens)) for "COC(=O)[C@@]1(Cc2ccc(OC)cc2)[C@H]2c3cc(C(=O)N4CCCC4)n(Cc4nc5ccccc5[nH]4)c3C[C@H]2CN1C(=O)c1ccccc1"
0.0984

Provide the reported composite z-score (system: Torsin-1A (Homo sapiens)) for "COC(=O)[C@@]1(Cc2ccccc2)[C@H]2c3cc(C(=O)N4CCCC4)n(Cc4c(CO)[nH]cc(C)c4=O)c3C[C@H]2CN1C(=O)c1ccccc1"
0.4

Provide the reported composite z-score (system: Torsin-1A (Homo sapiens)) for "COCCOC(=O)N1C(=O)[C@@]2(c3cc(C#CC4=CCCCC4)ccc31)[C@H](c1ccc(OCCO)cc1)N1[C@H](c3ccccc3)[C@H](c3ccccc3)OC(=O)[C@H]1[C@@H]2C(=O)N1CCc2cc(OC)c(OC)cc2C1"
0.359

Provide the reported composite z-score (system: Torsin-1A (Homo sapiens)) for CCCCN1CC=CC23O[C@@H]4C=CCOC(=O)[C@@H]4[C@H]2C(=O)N(CCCCCCO)[C@@H]3C1=O (some centres not stated)
-0.873

Provide the reported composite z-score (system: Torsin-1A (Homo sapiens)) for "C=C(C(=O)CC[C@H](OC(C)=O)c1ccccc1OCCO)C(C)C"
0.229

###

# assay_comment: growth effects on S. cerevisiae YJM789 – YJM789 clinical isolate, OD600, 24 h, basal, primary screen (AID 1089);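 further: growth of clinical yeast isolate S. cerevisiae YJM 789 seeded 1000 cells per well; test concentration not given here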
# reported_conditions: higher = more signal, called active from +8 up or from −8 down
Please provide measured z-score for the entries that follow.
Answer with a number only.

Give the reported z-score for this compound. "CC(C)[C@@H](C(=O)O)n1cc(C2(O)CCCCC2)nn1"
-0.791

Give the reported z-score for this compound. O=C(O)C1N=C(c2ccc(OCCCO)cc2)N(c2ccccc2)O1 (stereo not drawn)
-0.371

Give the reported z-score for this compound. "O=C(O)[C@H](Cc1ccccc1)n1cc(-c2ccccc2)nn1"
0.306

Give the reported z-score for this compound. "O=C(CS)NCCCCCNC(=O)[C@@H]1C[C@@H]2C(=O)NCC(=O)N2[C@@H]1c1cccc(OCCO)c1"
-5.72

Give the reported z-score for this compound. "O=C1[C@H]2C=C(I)[C@H](C[C@@H]2OCCCCO)[C@@]12CO2"
-1.04

Give the reported z-score for this compound. "C=CCN1Cc2ccccc2[C@@H]2OC(c3ccc(OCCCO)cc3)=N[C@]2(CCS(=O)(=O)c2ccccc2)C1=O"
0.863

Give the reported z-score for this compound. C=CCC(OC(C)=O)[C@@H]1[C@@H](N(Cc2ccc(-c3cccc(C(F)(F)F)c3)o2)C(=O)c2cccc3ccccc23)c2cc(OCCCO)ccc2N1C(=O)Cc1ccc2ccccc2c1 (stereo partly drawn)
0.1

Give the reported z-score for this compound. CCC(CC)C(O)C1C=CC2C(=O)N(c3ccccc3)C(=O)C2N1Nc1ccccc1 (stereo not drawn)
0.296

Give the reported z-score for this compound. CCCCCN1CC=CC23O[C@@H]4C=CCOC(=O)[C@@H]4[C@H]2C(=O)N(C(C)CO)[C@@H]3C1=O (stereo partly drawn)
-0.076

Give the reported z-score for this compound. CCCCC(O)C1C=CC2C(=O)N(C)C(=O)C2N1N1CCCCC1 (stereo not drawn)
0.882

Give the reported z-score for this compound. "COCC(=C=CC[C@H](O)c1cccc(OCCO)c1)C[C@H](O)c1cc(Cl)cc(Cl)c1O"
1.11

Give the reported z-score for this compound. O=C1NC(=O)C2C1C=CC(C(O)C=Cc1ccc([N+](=O)[O-])cc1)N2Nc1ccc(Cl)cc1Cl (stereo not drawn)
-0.17

Give the reported z-score for this compound. O=C1C2C=CC(C(O)c3ccc(F)cc3)N(Nc3ccc([N+](=O)[O-])cc3)C2C(=O)N1c1ccccc1 (stereo not drawn)
0.099

Give the reported z-score for this compound. "Cc1ccc(S(=O)(=O)N2C[C@@H](C(=O)O)[C@H](Sc3ccccc3)C[C@H]2c2ccccc2)cc1"
-0.552

Give the reported z-score for this compound. "C=C(CCCC)/C(=C/C[C@H](OC(C)=O)c1ccc(OCCO)cc1)c1cnc2ccccc2c1"
-1.1

Give the reported z-score for this compound. "COCCOC(=O)N1C(=O)[C@@]2(c3ccccc31)[C@H](C(N)=O)[C@H]1C(=O)O[C@H](c3ccccc3)[C@H](c3ccccc3)N1[C@@H]2c1ccc(O)cc1"
-1.19

Give the reported z-score for this compound. OB1C=CCC(CCc2ccccc2)O1 (stereo not drawn)
-1.95

Give the reported z-score for this compound. "COC(=O)[C@@]1(Cc2ccc(F)cc2)[C@H]2c3cc(C(=O)N(C)C)n(Cc4cc(C)n(C)n4)c3C[C@H]2CN1C(=O)c1ccccc1"
0.619

Give the reported z-score for this compound. "COc1ccc(CCNC(=O)[C@@]2(C)c3ccccc3C(=O)N(c3ccc(C)cn3)[C@H]2c2ccc(CO)cc2)cc1"
-1.39

Give the reported z-score for this compound. "COc1ccc([Si](C)(C)[C@H]2[C@H](CCn3cc([C@H](O)c4ccccc4)nn3)O[C@@]3(C(=O)N(C)c4ccccc43)[C@@H]2C)cc1"
-2.61

Give the reported z-score for this compound. COc1ccc(NN2C(C(O)c3ccc(N(C)C)cc3)C=CC3C(=O)N(C4CCCCC4)C(=O)C32)cc1 (stereo not drawn)
-0.229

Give the reported z-score for this compound. "O=C(NC1CC1)[C@@H]1c2ccccc2C(=O)N(Cc2cc(F)cc(C(F)(F)F)c2)[C@H]1c1ccc(CO)cc1"
-1.02

Give the reported z-score for this compound. "CC(=CC1CCCCC1)[C@@H](NC(=O)c1cccnc1)c1ccc(-c2ccccc2)cc1"
1.36

Give the reported z-score for this compound. CC(c1ccccc1)C(O)C1C=CC2C(=O)N(C)C(=O)C2N1NC(=O)OC(C)(C)C (stereo not drawn)
0.476

Give the reported z-score for this compound. CCCCN1CC=CC23O[C@@H]4C=CCCOC(=O)C4[C@H]2C(=O)N(CCCCCO)[C@@H]3C1=O (stereo partly drawn)
-0.494

Give the reported z-score for this compound. CC1CC/C=C\[C@H]2OC34C=CCN(Cn5nnc6ccccc65)C(=O)[C@H]3N(CCCCCO)C(=O)[C@@H]4C2C(=O)O1 (stereo partly drawn)
0.31

Give the reported z-score for this compound. "COC(=O)c1c(CC[C@@H](CO)NC(=O)N[C@H](Cc2ccccc2)Cn2cc(-c3ccccn3)nn2)oc(C(C)=O)c1C(=O)OC"
-0.413

Give the reported z-score for this compound. CC(C)N1CC=CC23O[C@@H]4C=CCOC(=O)[C@@H]4[C@H]2C(=O)N(CCCCCO)[C@@H]3C1=O (stereo partly drawn)
-1.04

Give the reported z-score for this compound. O=C1OCCC=C[C@H]2OC34C=CCN(c5ccc(Cl)cc5)C(=O)[C@H]3N(CCCO)C(=O)[C@@H]4C12 (stereo partly drawn)
-0.0304

Give the reported z-score for this compound. "CCCCC(=C=CC[C@H](O)c1cccc(OCCO)c1)C[C@H](O)c1ccccn1"
-1.2

Give the reported z-score for this compound. "O=C1O[C@H](c2ccccc2)[C@H](c2ccccc2)N2[C@H]1[C@@H](C(=O)NC[C@H](O)c1ccccc1)[C@]1(C(=O)Nc3ccccc31)[C@H]2c1ccc(O)cc1"
0.754

Give the reported z-score for this compound. "COc1ccc([Si](C)(C)[C@H]2[C@H](CC(=O)N3CCC[C@H]3CO)O[C@@]3(C(=O)N(Cc4cccc(N5CCOC5=O)c4)c4ccccc43)[C@@H]2C)cc1"
-1.53

Give the reported z-score for this compound. "CC(C)[Si](C#CCCCC#N)(Oc1ccccc1Br)C(C)C"
1.13
